Entries and their measured melting point follow.
quantity_name: melting point

query_smiles: COC(C)(C)CCOc1nc(N)nc2c1ncn2[C@@H]1O[C@H](CO[P@@]2(=O)OCC[C@@H](c3cccc(Cl)c3)O2)[C@H]2OC(=O)O[C@]21C
measurement: 93 to 96 °C
//
query_smiles: CCOc1nc(N)nc2c1ncn2[C@@H]1O[C@H](CO[P@@]2(=O)OCC[C@@H](c3cccc(Br)c3)O2)[C@H]2OC(=O)O[C@]21C
measurement: 77 to 80 °C
//
query_smiles: C[C@@]12OC(=O)O[C@@H]1[C@@H](CO[P@@]1(=O)OCC[C@@H](c3cccc(Cl)c3)O1)O[C@H]2n1cnc2c(OCCC3CCCCC3)nc(N)nc21
measurement: 93 to 95 °C

###

Listing of entries alongside the reported melting point.

compound: C[C@@]12OC(=O)O[C@@H]1[C@@H](CO[P@@]1(=O)OCC[C@@H](c3cccc(Cl)c3)O1)O[C@H]2n1cnc2c(OCC3CCOCC3)nc(N)nc21 [Compound 129]
melting point: 105 to 108 °C
//
compound: CC(C)Oc1nc(N)nc2c1ncn2[C@@H]1O[C@H](CO[P@@]2(=O)OCC[C@@H](c3cccc(Cl)c3)O2)[C@H]2OC(=O)O[C@]21C [Compound 151]
melting point: 106 to 110 °C
//
compound: CCOc1nc(N)nc2c1ncn2[C@@H]1O[C@H](CO[P@@]2(=O)OCC[C@@H](c3cc(Cl)cc(Cl)c3)O2)[C@H]2OC(=O)O[C@]21C [Compound 127]
melting point: 101 to 103 °C
//
compound: CC(C)C(=O)O[C@@H]1[C@@H](CO[P@@]2(=O)OCC[C@@H](c3cccc(Cl)c3)O2)O[C@@H](n2cnc3c(O)nc(N)nc32)[C@]1(C)O [Compound 117]
melting point: > 200 °C

###

Where a name gives a salt, the structure may show the parent alone.

molecule: C[C@@]12OC(=O)O[C@@H]1[C@@H](CO[P@@]1(=O)OCC[C@@H](c3cccc(Cl)c3)O1)O[C@H]2n1cnc2c(OCC3CC4CCC3C4)nc(N)nc21 (stereo partly drawn)
melting point: 99 to 101 °C
--
molecule: CCOc1nc(N)nc2c1ncn2[C@@H]1O[C@H](CO[P@@]2(=O)OCC[C@@H](c3cccc(Cl)c3)O2)[C@@H](OC(=O)C(C)C)[C@@]1(C)O (as salt: trifluoroacetate)
melting point: 162 to 165 °C
--
molecule: C[C@@]12OC(=O)O[C@@H]1[C@@H](CO[P@@]1(=O)OCC[C@@H](c3cccc(Cl)c3)O1)O[C@H]2n1cnc2c(OCC3CCC3)nc(N)nc21
melting point: 92 to 94 °C

###

Structures can show the parent of a compound that is named as a salt.
quantity_name: melting point

compound: C[C@@]12OC(=O)O[C@@H]1[C@@H](CO[P@@]1(=O)OCC[C@@H](c3cccc(C#N)c3)O1)O[C@H]2n1cnc2c(O)nc(N)nc21
quantity_name: melting point
measurement: 218 to 220 °C
--
compound: CC(C)[C@H](N)C(=O)O[C@@H]1[C@@H](CO[P@@]2(=O)OCC[C@@H](c3cccc(Cl)c3)O2)O[C@@H](n2cnc3c(O)nc(N)nc32)[C@]1(C)O (as salt: trifluoroacetate)
quantity_name: melting point
measurement: > 210 °C
--
compound: CSCCCOc1nc(N)nc2c1ncn2[C@@H]1O[C@H](CO[P@@]2(=O)OCC[C@@H](c3cccc(Cl)c3)O2)[C@H]2OC(=O)O[C@]21C
quantity_name: melting point
measurement: 79 to 82 °C

###

Structures can show the parent of a compound that is named as a salt.
Catalogue of melting point values

compound: CCOc1nc(N)nc2c1ncn2[C@@H]1O[C@H](CO[P@@]2(=O)OCC[C@@H](c3cccc(Cl)c3)O2)[C@@H](OC(=O)[C@@H](N)C(C)C)[C@@]1(C)O (as salt: trifluoroacetate)
melting point: 128 to 130 °C

compound: COc1nc(N)nc2c1ncn2[C@@H]1O[C@H](CO[P@@]2(=O)OCC[C@@H](c3cccc(Cl)c3)O2)[C@H]2OC(=O)O[C@]21C
melting point: 125 to 130 °C

compound: CCOc1nc(N)nc2c1ncn2[C@@H]1O[C@H](CO[P@@]2(=O)OCC[C@@H](c3cccc(Cl)c3)O2)[C@H]2OC(=O)O[C@]21C
melting point: 82 to 84 °C

compound: CCOc1nc(N)nc2c1ncn2[C@@H]1O[C@H](CO[P@@]2(=O)OCC[C@@H](c3cccc(Cl)c3)O2)[C@@H](OC(=O)C2CCCC2)[C@@]1(C)O
melting point: 106 to 111 °C

compound: CCOc1nc(N)nc2c1ncn2[C@@H]1O[C@H](CO[P@@]2(=O)OCC[C@@H](c3cccc(F)c3)O2)[C@H]2OC(=O)O[C@]21C
melting point: 88 to 90 °C

compound: CC(C)(C)COc1nc(N)nc2c1ncn2[C@@H]1O[C@H](CO[P@@]2(=O)OCC[C@@H](c3cccc(Cl)c3)O2)[C@H]2OC(=O)O[C@]21C
melting point: 88 to 91 °C

compound: C[C@@]12OC(=O)O[C@@H]1[C@@H](CO[P@@]1(=O)OCC[C@@H](c3cccc(Cl)c3)O1)O[C@H]2n1cnc2c(O)nc(N)nc21
melting point: > 200 °C

compound: C[C@@]12OC(=O)O[C@@H]1[C@@H](CO[P@@]1(=O)OCC[C@@H](c3cccc(Cl)c3)O1)O[C@H]2n1cnc2c(OCC3CC3)nc(N)nc21
melting point: 128 to 132 °C

compound: CC(C)COc1nc(N)nc2c1ncn2[C@@H]1O[C@H](CO[P@@]2(=O)OCC[C@@H](c3cccc(Cl)c3)O2)[C@H]2OC(=O)O[C@]21C
melting point: 118 to 122 °C

compound: CC(C)CCOc1nc(N)nc2c1ncn2[C@@H]1O[C@H](CO[P@@]2(=O)OCC[C@@H](c3cccc(Cl)c3)O2)[C@H]2OC(=O)O[C@]21C
melting point: 76 to 78 °C

compound: CCCCCOc1nc(N)nc2c1ncn2[C@@H]1O[C@H](CO[P@@]2(=O)OCC[C@@H](c3cccc(Cl)c3)O2)[C@H]2OC(=O)O[C@]21C
melting point: 80 to 82 °C

###

melting point values, listed per item
quantity_name: melting point

compound: CCOc1nc(N)nc2c1ncn2[C@@H]1O[C@H](CO[P@@]2(=O)OCC[C@@H](c3ccccc3)O2)[C@H]2OC(=O)O[C@]21C [Compound 182]
quantity_name: melting point
measurement: 105 to 107 °C

compound: C[C@@]12OC(=O)O[C@@H]1[C@@H](CO[P@@]1(=O)OCC[C@@H](c3cc(F)cc(F)c3)O1)O[C@H]2n1cnc2c(O)nc(N)nc21 [Compound 101]
quantity_name: melting point
measurement: 234 to 236 °C

compound: C[C@@]12OC(=O)O[C@@H]1[C@@H](CO[P@@]1(=O)OCC[C@@H](c3cccc(Cl)c3)O1)O[C@H]2n1cnc2c(OC3CCCC3)nc(N)nc21 [Compound 125]
quantity_name: melting point
measurement: 107 to 109 °C

###

molecule: CC1CC1COc1nc(N)nc2c1ncn2[C@@H]1O[C@H](CO[P@@]2(=O)OCC[C@@H](c3cccc(Cl)c3)O2)[C@H]2OC(=O)O[C@]21C (stereo partly drawn)
melting point: 88 to 90 °C

molecule: CCC(CC)COc1nc(N)nc2c1ncn2[C@@H]1O[C@H](CO[P@@]2(=O)OCC[C@@H](c3cccc(Cl)c3)O2)[C@H]2OC(=O)O[C@]21C
melting point: 72 to 75 °C

molecule: CCOc1nc(N)nc2c1ncn2[C@@H]1O[C@H](CO[P@]2(=O)OCC[C@H](c3cc(Cl)cc(Cl)c3)O2)[C@H]2OC(=O)O[C@]21C
melting point: 101 to 103 °C

molecule: C[C@@]12OC(=O)O[C@@H]1[C@@H](CO[P@@]1(=O)OCC[C@@H](c3cccc(Cl)c3)O1)O[C@H]2n1cnc2c(OCC3CCCCC3)nc(N)nc21
melting point: 101 to 103 °C

molecule: CCOc1nc(N)nc2c1ncn2[C@@H]1O[C@H](CO[P@@]2(=O)OCC[C@@H](c3cc(F)cc(F)c3)O2)[C@H]2OC(=O)O[C@]21C
melting point: 96 to 98 °C

molecule: CCOC(COc1nc(N)nc2c1ncn2[C@@H]1O[C@H](CO[P@@]2(=O)OCC[C@@H](c3cccc(Cl)c3)O2)[C@H]2OC(=O)O[C@]21C)OCC
melting point: 72 to 75 °C
